Data provenance is paper PMC12102759.

- Tested on: PABPC1 PABC
- Type: binding, human
- EXPERIMENTAL PARAMETERS: DMS-BM library, bait PABPC1 PABC, prey ATXN2, peptide TLNPNAKEFNPRSFSQ; K = wild type, row aa = residue at this position
DMS-derived PSSM value, position K7 overview
Reply briefly: the number, and no unit.

Use the examples below as a reference point.
[
  {
    "RESIDUE CODES": "TLNPNAKEFNPRSFSQ K7Q (TLNPNAQEFNPRSFSQ)",
    "DMS-derived PSSM value, position K7": 0.008943
  },
  {
    "RESIDUE CODES": "TLNPNAKEFNPRSFSQ K7E (TLNPNAEEFNPRSFSQ)",
    "DMS-derived PSSM value, position K7": 0.001823
  },
  {
    "RESIDUE CODES": "TLNPNAKEFNPRSFSQ K7D (TLNPNADEFNPRSFSQ)",
    "DMS-derived PSSM value, position K7": 0.01281
  },
  {
    "RESIDUE CODES": "TLNPNAKEFNPRSFSQ K7R (TLNPNAREFNPRSFSQ)",
    "DMS-derived PSSM value, position K7": 0.00234
  },
  {
    "RESIDUE CODES": "TLNPNAKEFNPRSFSQ K7T (TLNPNATEFNPRSFSQ)",
    "DMS-derived PSSM value, position K7": 0.006845
  },
  {
    "RESIDUE CODES": "TLNPNAKEFNPRSFSQ",
    "DMS-derived PSSM value, position K7": 0.0126
  },
  {
    "RESIDUE CODES": "TLNPNAKEFNPRSFSQ K7G (TLNPNAGEFNPRSFSQ)",
    "DMS-derived PSSM value, position K7": 0.01102
  },
  {
    "RESIDUE CODES": "TLNPNAKEFNPRSFSQ K7I (TLNPNAIEFNPRSFSQ)",
    "DMS-derived PSSM value, position K7": 0.003703
  },
  {
    "RESIDUE CODES": "TLNPNAKEFNPRSFSQ K7H (TLNPNAHEFNPRSFSQ)",
    "DMS-derived PSSM value, position K7": 0.02911
  },
  {
    "RESIDUE CODES": "TLNPNAKEFNPRSFSQ K7S (TLNPNASEFNPRSFSQ)",
    "DMS-derived PSSM value, position K7": 0.01353
  }
]

Consider the record given below.
# input sequence: TLNPNAKEFNPRSFSQ K7F (TLNPNAFEFNPRSFSQ) ; wanted: its DMS-derived PSSM value, position K7
0.058

----------
- Test system: PABPC1 PABC
- Type: binding, human
- EXPERIMENTAL PARAMETERS: DMS-BM library, bait PABPC1 PABC, prey ATXN2, TLNPNAKEFNPRSF(averaged) over the two overlapping peptides; E = wild type, row aa = residue at this position
Entry flag: true if DMS-derived PSSM value (averaged), position E8 reaches 0.02; false if it does not.

[
  {
    "SUBSTANCE": "TLNPNAKEFNPRSF(averaged) E8F (TLNPNAKFFNPRSF)",
    "CLASS LABEL": "false"
  },
  {
    "SUBSTANCE": "TLNPNAKEFNPRSF(averaged) E8Y (TLNPNAKYFNPRSF)",
    "CLASS LABEL": "true"
  },
  {
    "SUBSTANCE": "TLNPNAKEFNPRSF(averaged) E8M (TLNPNAKMFNPRSF)",
    "CLASS LABEL": "true"
  },
  {
    "SUBSTANCE": "TLNPNAKEFNPRSF(averaged) E8Q (TLNPNAKQFNPRSF)",
    "CLASS LABEL": "true"
  },
  {
    "SUBSTANCE": "TLNPNAKEFNPRSF(averaged) E8G (TLNPNAKGFNPRSF)",
    "CLASS LABEL": "false"
  },
  {
    "SUBSTANCE": "TLNPNAKEFNPRSF(averaged) E8W (TLNPNAKWFNPRSF)",
    "CLASS LABEL": "false"
  }
]

Quick check: does TLNPNAKEFNPRSF(averaged) E8K (TLNPNAKKFNPRSF) have DMS-derived PSSM value (averaged), position E8 greater than or equal to 0.02?
true

Quick check: does TLNPNAKEFNPRSF(averaged) E8A (TLNPNAKAFNPRSF) have DMS-derived PSSM value (averaged), position E8 greater than or equal to 0.02?
false

Quick check: does TLNPNAKEFNPRSF(averaged) E8R (TLNPNAKRFNPRSF) have DMS-derived PSSM value (averaged), position E8 greater than or equal to 0.02?
false

Quick check: does TLNPNAKEFNPRSF(averaged) E8L (TLNPNAKLFNPRSF) have DMS-derived PSSM value (averaged), position E8 greater than or equal to 0.02?
false

----------
- System: PABPC1 PABC
- Format: binding, human
- EXPERIMENTAL PARAMETERS: DMS-BM library, bait PABPC1 PABC, prey ATXN2, TLNPNAKEFNPRSF(averaged) over the two overlapping peptides; P = wild type, row aa = residue at this position
RECORDED METRIC: DMS-derived PSSM value (averaged), position P4

[
  {
    "SUBSTANCE": "TLNPNAKEFNPRSF(averaged) P4W (TLNWNAKEFNPRSF)",
    "RECORDED VALUE": 0
  }
]

# input substance: TLNPNAKEFNPRSF(averaged) P4F (TLNFNAKEFNPRSF) ; wanted: its DMS-derived PSSM value (averaged), position P4
0.005863

# input substance: TLNPNAKEFNPRSF(averaged) P4R (TLNRNAKEFNPRSF) ; wanted: its DMS-derived PSSM value (averaged), position P4
0

# input substance: TLNPNAKEFNPRSF(averaged) P4D (TLNDNAKEFNPRSF) ; wanted: its DMS-derived PSSM value (averaged), position P4
0

# input substance: TLNPNAKEFNPRSF(averaged) P4I (TLNINAKEFNPRSF) ; wanted: its DMS-derived PSSM value (averaged), position P4
0.2825

# input substance: TLNPNAKEFNPRSF(averaged) P4T (TLNTNAKEFNPRSF) ; wanted: its DMS-derived PSSM value (averaged), position P4
0.01555

# input substance: TLNPNAKEFNPRSF(averaged) P4V (TLNVNAKEFNPRSF) ; wanted: its DMS-derived PSSM value (averaged), position P4
0.4012

----------
IC50 overview
- TARGET OF ASSAY: NSP3 ADRP (Severe acute respiratory syndrome coronavirus 2, UniProt P0DTC1)
- ASSAY NAME: biochemical
- Type: binding, SARS‐CoV‐2
Answer with a number only, understood to be in µM.

Use the examples below as a reference point.
[
  {
    "SUBSTANCE": "Ac-STYLHPLSELLTIPLD-NH2 [MBOAT1 G28T]",
    "UNIT SPEC": "µM",
    "IC50": 311
  },
  {
    "SUBSTANCE": "Ac-STYLHPLSELLGIPLD-NH2 [MBOAT1 wt]",
    "UNIT SPEC": "µM",
    "IC50": 175
  },
  {
    "SUBSTANCE": "Ac-STYLHPLSELFGIPLD-NH2 [MBOAT1 L27F]",
    "UNIT SPEC": "µM",
    "IC50": 255
  },
  {
    "SUBSTANCE": "Ac-STYLHPLSELLGIPFD-NH2 [MBOAT1 L31F]",
    "UNIT SPEC": "µM",
    "IC50": 285
  },
  {
    "SUBSTANCE": "Ac-STYLHPLSELLGMPLD-NH2 [MBOAT1 I29M]",
    "UNIT SPEC": "µM",
    "IC50": 268
  }
]

Form field - read-out: IC50; system: NSP3 ADRP (Severe acute respiratory syndrome coronavirus 2, UniProt P0DTC1); submitted item: Ac-STYIHPLSELLGIPLD-NH2 [MBOAT1 L20I]
429

Form field - read-out: IC50; system: NSP3 ADRP (Severe acute respiratory syndrome coronavirus 2, UniProt P0DTC1); submitted item: Ac-STALHPLSELLGIPLDY-NH2 [MBOAT1 Y19A]
452

----------
- Test system: PABPC1 PABC
- Type: binding, human
- EXPERIMENTAL PARAMETERS: DMS-BM library, bait PABPC1 PABC, prey ATXN2, TLNPNAKEFNPRSF(averaged) over the two overlapping peptides; S = wild type, row aa = residue at this position
DMS-derived PSSM value (averaged), position S13 overview
Reply briefly: the number, and no unit.

Use the examples below as a reference point.
[
  {
    "SUBSTANCE": "TLNPNAKEFNPRSF(averaged) S13F (TLNPNAKEFNPRFF)",
    "RECORDED VALUE": 0.01382
  },
  {
    "SUBSTANCE": "TLNPNAKEFNPRSF(averaged) S13E (TLNPNAKEFNPREF)",
    "RECORDED VALUE": 0.01358
  },
  {
    "SUBSTANCE": "TLNPNAKEFNPRSF(averaged) S13G (TLNPNAKEFNPRGF)",
    "RECORDED VALUE": 0.08376
  },
  {
    "SUBSTANCE": "TLNPNAKEFNPRSF(averaged) S13R (TLNPNAKEFNPRRF)",
    "RECORDED VALUE": 0.00496
  },
  {
    "SUBSTANCE": "TLNPNAKEFNPRSF(averaged) S13P (TLNPNAKEFNPRPF)",
    "RECORDED VALUE": 0.06349
  }
]

Consider the record given below.
# input substance: TLNPNAKEFNPRSF ; wanted: its DMS-derived PSSM value (averaged), position S13
0.05759
